Molecular target: mTOR/GbL/Raptor (mTORC1) (Homo sapiens)
Experiment: mTOR/GbL/Raptor (mTORC1) ELISA assay
Conditions: phosphorylation of 4E-BP1; 0.2 nM mTORC1, 10 μM ATP; read-out: IC50 in this assay (mTORC1 ELISA)
Measured IC50 of individual entries

The cases that follow already have their IC50 on record.
>  <molecule>
COC(=O)Nc1nc2cc(-c3ccc4c(c3)CN(c3ccnc5ccccc35)CCO4)ccc2n1C

>  <IC50>
≥ 2000 nM

$$$$
>  <molecule>
Cc1nc2ccc(-c3ccc4c(c3)CN(c3ncnc5c(Cl)cc(Cl)cc35)CCO4)cc2[nH]1

>  <IC50>
50 to 250 nM

$$$$

Query Cc1nc2ncc(-c3ccc4c(c3)CN(c3ncnc5c3CCC(C)(c3ccccc3)C5)CCO4)cc2[nH]1 (stereo not shown) on mTOR/GbL/Raptor (mTORC1) (Homo sapiens); IC50 returned: ≤ 10 nM

Tested on mTOR/GbL/Raptor (mTORC1) (Homo sapiens): CC(N)CNS(=O)(=O)c1cc(-c2ccc3c(c2)CN(c2ncnc4c2CC(C)(C)CC4)CCO3)cnc1N (stereo not shown) . Observed IC50: 50 to 250 nM
